Test system: Pseudomonas aeruginosa Tsuchijima
Experiment: In vitro antibacterial activity (MIC)
Type: cell-based
Conditions: Pseudomonas aeruginosa Tsuchijima; read-out: minimum inhibitory concentration (MIC)
Counter-ions that a name gives are not always drawn.
Observed property: MIC (µg/mL)
Give bare numbers, in µg/mL.

Compound | MIC / µg/mL
CC1(C)S[C@@H]2[C@H](NC(=O)[C@H](NC(=O)c3c[nH]c4nc(N5CCN(C=O)CC5)ncc4c3=O)c3ccccc3)C(=O)N2[C@H]1C(=O)O [Compound B, sodium salt] | 1.56
CC1(C)S[C@@H]2[C@H](NC(=O)[C@H](NC(=O)c3c[nH]c4nc(N)ncc4c3=O)c3ccc(O)cc3)C(=O)N2[C@H]1C(=O)O [Compound G, sodium salt] | 0.39
CN1CCN(c2ncc3c(=O)c(C(=O)N[C@@H](C(=O)N[C@@H]4C(=O)N5[C@@H]4SC(C)(C)[C@@H]5C(=O)O)c4ccc(O)cc4)c[nH]c3n2)CC1 [Compound A, sodium salt] | 0.39
CNc1ncc2c(=O)c(C(=O)N[C@@H](C(=O)N[C@@H]3C(=O)N4[C@@H]3SC(C)(C)[C@@H]4C(=O)O)c3ccc(O)cc3)c[nH]c2n1 [Compound F, sodium salt] | 0.78

Dear colleague, could you send me MIC for each of the items below? Thanks.
1. CCn1cc(C(=O)O)c(=O)c2cnc(N3CCNCC3)nc21
2. CC1(C)S[C@@H]2[C@H](NC(=O)[C@H](N)c3ccc(O)cc3)C(=O)N2[C@H]1C(=O)O [Compound M, sodium salt]

12.5
200

---

Tested on: Shigella flexneri 4a P-330
Counter-ions that a name gives are not always drawn.
Observed property: MIC (µg/mL)
Answers are plain numbers, in µg/mL.

Reference set (2 entries):
Compound | Tested on | MIC, µg/mL
CNc1ncc2c(=O)c(C(=O)N[C@@H](C(=O)N[C@@H]3C(=O)N4[C@@H]3SC(C)(C)[C@@H]4C(=O)O)c3ccc(O)cc3)c[nH]c2n1 [Compound F, sodium salt] | Shigella flexneri 4a P-330 | 6.25
CCn1cc(C(=O)O)c(=O)c2cnc(N3CCNCC3)nc21 | Shigella flexneri 4a P-330 | 1.56

Dear colleague, could you please provide MIC for the compounds listed below?
1. CN1CCN(c2ncc3c(=O)c(C(=O)N[C@@H](C(=O)N[C@@H]4C(=O)N5[C@@H]4SC(C)(C)[C@@H]5C(=O)O)c4ccc(O)cc4)c[nH]c3n2)CC1 [Compound A, sodium salt]
2. CC1(C)S[C@@H]2[C@H](NC(=O)[C@H](N)c3ccc(O)cc3)C(=O)N2[C@H]1C(=O)O [Compound M, sodium salt]
3. CC1(C)S[C@@H]2[C@H](NC(=O)[C@H](NC(=O)c3c[nH]c4nc(N)ncc4c3=O)c3ccc(O)cc3)C(=O)N2[C@H]1C(=O)O [Compound G, sodium salt]

1. 0.78
2. 25
3. 6.25

---

Please respond with reported MIC for every item in the list.
System: Serratia mercescens IFO 3736
Test: In vitro antibacterial activity (MIC)
Format: cell-based
Settings: IFO3736; Serratia mercescens IFO 3736; read-out: minimum inhibitory concentration (MIC)
Structures can show the parent of a compound that is named as a salt.
Answers are plain numbers, in µg/mL.

Compound | Unit name | MIC
CC1(C)S[C@@H]2[C@H](NC(=O)[C@H](NC(=O)c3c[nH]c4nc(N)ncc4c3=O)c3ccc(O)cc3)C(=O)N2[C@H]1C(=O)O [Compound G, sodium salt] | µg/mL | 12.5

We next turn to a different compound, shown below.
Requested field: MIC. Item: CC1(C)S[C@@H]2[C@H](NC(=O)[C@H](NC(=O)c3c[nH]c4nc(N5CCN(C=O)CC5)ncc4c3=O)c3ccc(O)cc3)C(=O)N2[C@H]1C(=O)O [Compound 1, sodium salt]
6.25

---

Assay: Plasma level in mice
Format: in vivo, male mice (ddY)
Settings: mouse, plasma; 25 mg/kg, im, single dose; 1 hour; read-out: Average plasma conc.
Protocol: The contents of the vials (No. A) obtained in Example 17 were dissolved in deionized water to form solutions of compound 1 in a concentration of 100 mg/ml. The solutions were intramuscularly (im) administered to twenty four male mice (ddY) having an average body weight of 26 g at a dose of 25 mg/kg. […] Drug levels were determined by the thin-layer cup-plate method using Escherichia coli Kp as an indicator organism. […]
Where a name gives a salt, the structure may show the parent alone.
Observed property: concentration at 1 h (ng/mL)
One number for each entry, in ng/mL.

Give the measured concentration at 1 h of CC1(C)S[C@@H]2[C@H](NC(=O)[C@H](NC(=O)c3c[nH]c4nc(N5CCN(C=O)CC5)ncc4c3=O)c3ccc(O)cc3)C(=O)N2[C@H]1C(=O)O [Compound 1, sodium salt] .
15600

---

Experiment: Urinary excretion in mice
Format: in vivo, male mice (ddY)
Conditions: mouse, urine; 25 mg/kg, im, single dose; 0-3 hour; read-out: c: urinary concentration
Where a name gives a salt, the structure may show the parent alone.
Observed property: concentration at 3 h (µg/mL)
Give bare numbers, in µg/mL.

Entry CC1(C)S[C@@H]2[C@H](NC(=O)[C@H](NC(=O)c3c[nH]c4nc(N5CCN(C=O)CC5)ncc4c3=O)c3ccc(O)cc3)C(=O)N2[C@H]1C(=O)O [Compound 1, sodium salt] has what concentration at 3 h?
187

---

Tested on: Escherichia coli P-5101
Assay: In vivo efficacy against systemic infection
Parameters: species or system male mice (ddY)
Conditions: P5101, in Mus musculus, 168 h, iv, twice, about 5 minutes and 6 hours after infection, read-out: ED50 (median effective dose)
Counter-ions that a name gives are not always drawn.
Observed property: ED50
Reply with the number, then its unit.

Examples with their reported ED50 follow.
Compound | ED50
CCn1cc(C(=O)O)c(=O)c2cnc(N3CCNCC3)nc21 | 4.6 mg/kg
CNc1ncc2c(=O)c(C(=O)N[C@@H](C(=O)N[C@@H]3C(=O)N4[C@@H]3SC(C)(C)[C@@H]4C(=O)O)c3ccc(O)cc3)c[nH]c2n1 [Compound F, sodium salt] | 12 mg/kg

Here is the next item to consider.
Recorded ED50 for CC1(C)S[C@@H]2[C@H](NC(=O)[C@H](NC(=O)c3c[nH]c4nc(N5CCN(C=O)CC5)ncc4c3=O)c3ccc(O)cc3)C(=O)N2[C@H]1C(=O)O [Compound 1, sodium salt] , please?
2.9 mg/kg

---

Test: in vivo
Conditions: mouse, sc
Counter-ions that a name gives are not always drawn.
Exercise: for every item that follows, state its recorded selectivity ratio.

Compound | Observed value
CNc1ncc2c(=O)c(C(=O)N[C@@H](C(=O)N[C@@H]3C(=O)N4[C@@H]3SC(C)(C)[C@@H]4C(=O)O)c3ccc(O)cc3)c[nH]c2n1 [Compound F, sodium salt] | 295
CC1(C)S[C@@H]2[C@H](NC(=O)[C@H](NC(=O)c3c[nH]c4nc(N)ncc4c3=O)c3ccc(O)cc3)C(=O)N2[C@H]1C(=O)O [Compound G, sodium salt] | 227
CN(C)c1ncc2c(=O)c(C(=O)N[C@@H](C(=O)N[C@@H]3C(=O)N4[C@@H]3SC(C)(C)[C@@H]4C(=O)O)c3ccc(O)cc3)c[nH]c2n1 [Compound E] | 33
CCN1CCN(C(=O)N[C@@H](C(=O)N[C@@H]2C(=O)N3[C@@H]2SC(C)(C)[C@@H]3C(=O)O)c2ccccc2)C(=O)C1=O [Compound H, sodium salt] | > 42
CC1(C)S[C@@H]2[C@H](NC(=O)[C@H](NC(=O)c3c[nH]c4nc(N5CCN(C=O)CC5)ncc4c3=O)c3ccc(O)cc3)C(=O)N2[C@H]1C(=O)O [Compound 1, sodium salt] | > 3000
CN1CCN(c2ncc3c(=O)c(C(=O)N[C@@H](C(=O)N[C@@H]4C(=O)N5[C@@H]4SC(C)(C)[C@@H]5C(=O)O)c4ccc(O)cc4)c[nH]c3n2)CC1 [Compound A, sodium salt] | 417

Please find the next compound below.
Recorded selectivity ratio for CC(=O)N1CCN(c2ncc3c(=O)c(C(=O)N[C@@H](C(=O)N[C@@H]4C(=O)N5[C@@H]4SC(C)(C)[C@@H]5C(=O)O)c4ccc(O)cc4)c[nH]c3n2)CC1 [Compound 2, sodium salt] , please?
> 1200

---

Experiment: in vivo
Conditions: mouse, iv
Counter-ions that a name gives are not always drawn.
Provide the reported selectivity ratio of each item.
Answers are plain numbers.

Look over these answered cases.
Compound | selectivity ratio
CNc1ncc2c(=O)c(C(=O)N[C@@H](C(=O)N[C@@H]3C(=O)N4[C@@H]3SC(C)(C)[C@@H]4C(=O)O)c3ccc(O)cc3)c[nH]c2n1 [Compound F, sodium salt] | 248
CC(=O)N1CCN(c2ncc3c(=O)c(C(=O)N[C@@H](C(=O)N[C@@H]4C(=O)N5[C@@H]4SC(C)(C)[C@@H]5C(=O)O)c4ccc(O)cc4)c[nH]c3n2)CC1 [Compound 2, sodium salt] | 753
CN1CCN(c2ncc3c(=O)c(C(=O)N[C@@H](C(=O)N[C@@H]4C(=O)N5[C@@H]4SC(C)(C)[C@@H]5C(=O)O)c4ccc(O)cc4)c[nH]c3n2)CC1 [Compound A, sodium salt] | 432
CC1(C)S[C@@H]2[C@H](NC(=O)[C@H](NC(=O)c3c[nH]c4nc(N5CCN(C=O)CC5)ncc4c3=O)c3ccc(O)cc3)C(=O)N2[C@H]1C(=O)O [Compound 1, sodium salt] | 1100

Consider the compound CC1(C)S[C@@H]2[C@H](NC(=O)[C@H](NC(=O)c3c[nH]c4nc(N)ncc4c3=O)c3ccc(O)cc3)C(=O)N2[C@H]1C(=O)O [Compound G, sodium salt] and give its measured selectivity ratio.
256
